This collection of values is drawn from paper PMC7531004.

# Test system: Streptococcus pyogenes SSI-9
# EXPERIMENTAL_PROTOCOL: Antibacterial activity assay of bead-derived peptides (three concentrations)
# Assay type: cell-based
# Parameters: key: +++: inhibition by the 640-fold diluted peptide solution; ++: inhibition by the 160-fold diluted solution; +: inhibition by the 40-fold diluted solution; -: no inhibition
# CONDITION_NOTES: S. pyogenes, bead-derived peptide solution, three concentrations
Where a SMILES comes first, the peptide text is derived from it. [ ]: non-standard residue; d: D form. The star is where a group is joined. NHCH2CH2OH = OCCN*; For = O=C*
MEASUREMENT_TYPE: antibacterial activity

COMPOUND	ASSAYED_TARGET	TEST_VALUE
CC(C)C[C@@H](NC(=O)[C@H](C)NC(=O)[C@H](NC(=O)[C@H](C)NC(=O)CNC(=O)[C@@H](NC=O)C(C)C)[C@H](C)O)C(=O)N[C@H](C(=O)N[C@H](CC(C)C)C(=O)N[C@@H](Cc1c[nH]c2ccccc12)C(=O)N[C@@H](C(=O)N[C@@H](Cc1c[nH]c2ccccc12)C(=O)N[C@H](CC(C)C)C(=O)N[C@@H](Cc1c[nH]c2ccccc12)C(=O)N[C@@H](C(=O)N[C@@H](Cc1c[nH]c2ccccc12)C(=O)NCCO)[C@H](C)O)C(C)C)C(C)C [compound 3130] (For-VGA[dT]A[dL]V[dL]W[dV]W[dL]W[dT]W-NHCH2CH2OH)	Streptococcus pyogenes SSI-9	-
CC(C)C[C@@H](NC(=O)[C@H](C)NC(=O)CNC(=O)[C@@H](NC=O)C(C)C)C(=O)N[C@@H](C)C(=O)N[C@H](CC(C)C)C(=O)N[C@H](C(=O)N[C@H](CC(C)C)C(=O)N[C@@H](Cc1c[nH]c2ccccc12)C(=O)N[C@@H](C(=O)N[C@@H](Cc1c[nH]c2ccccc12)C(=O)N[C@@H](C(=O)N[C@@H](Cc1c[nH]c2ccccc12)C(=O)N[C@@H](C(=O)N[C@@H](Cc1c[nH]c2ccccc12)C(=O)NCCO)C(C)C)C(C)C)C(C)C)C(C)C [compound 5611] (For-VGA[dL]A[dL]V[dL]W[dV]W[dV]W[dV]W-NHCH2CH2OH)	Streptococcus pyogenes SSI-9	+
CC(C)C[C@@H](NC(=O)[C@H](C)NC(=O)[C@H](NC(=O)[C@H](C)NC(=O)CNC(=O)[C@@H](NC=O)C(C)C)[C@H](C)O)C(=O)N[C@H](C(=O)N[C@H](CC(C)C)C(=O)N[C@@H](Cc1c[nH]c2ccccc12)C(=O)N[C@H](CC(C)C)C(=O)N[C@@H](Cc1c[nH]c2ccccc12)C(=O)N[C@H](CC(C)C)C(=O)N[C@@H](Cc1c[nH]c2ccccc12)C(=O)N[C@H](CC(C)C)C(=O)N[C@@H](Cc1c[nH]c2ccccc12)C(=O)NCCO)C(C)C [compound 7905] (For-VGA[dT]A[dL]V[dL]W[dL]W[dL]W[dL]W-NHCH2CH2OH)	Streptococcus pyogenes SSI-9	-
CC(C)C[C@@H](NC(=O)[C@H](C)NC(=O)[C@H](NC(=O)[C@H](C)NC(=O)CNC(=O)[C@@H](NC=O)C(C)C)C(C)C)C(=O)N[C@H](C(=O)N[C@@H](C(=O)N[C@@H](Cc1c[nH]c2ccccc12)C(=O)N[C@H](CC(C)C)C(=O)N[C@@H](Cc1c[nH]c2ccccc12)C(=O)N[C@H](CC(C)C)C(=O)N[C@@H](Cc1c[nH]c2ccccc12)C(=O)N[C@@H](C(=O)N[C@@H](Cc1c[nH]c2ccccc12)C(=O)NCCO)C(C)C)C(C)C)C(C)C [compound 12789] (For-VGA[dV]A[dL]V[dV]W[dL]W[dL]W[dV]W-NHCH2CH2OH)	Streptococcus pyogenes SSI-9	-
CC(C)C[C@@H](NC(=O)[C@H](C)NC(=O)CNC(=O)[C@@H](NC=O)C(C)C)C(=O)N[C@@H](C)C(=O)N[C@H](CC(C)C)C(=O)N[C@H](C(=O)N[C@@H](C(=O)N[C@@H](Cc1c[nH]c2ccccc12)C(=O)N[C@@H](C(=O)N[C@@H](Cc1c[nH]c2ccccc12)C(=O)N[C@@H](C(=O)N[C@@H](Cc1c[nH]c2ccccc12)C(=O)N[C@@H](C(=O)N[C@@H](Cc1c[nH]c2ccccc12)C(=O)NCCO)C(C)C)C(C)C)C(C)C)C(C)C)C(C)C [compound 5488] (For-VGA[dL]A[dL]V[dV]W[dV]W[dV]W[dV]W-NHCH2CH2OH)	Streptococcus pyogenes SSI-9	+
CC(C)C[C@@H](NC(=O)[C@H](C)NC(=O)CNC(=O)[C@@H](NC=O)C(C)C)C(=O)N[C@@H](C)C(=O)N[C@H](CC(C)C)C(=O)N[C@H](C(=O)N[C@H](CC(C)C)C(=O)N[C@@H](Cc1c[nH]c2ccccc12)C(=O)N[C@@H](C(=O)N[C@@H](Cc1c[nH]c2ccccc12)C(=O)N[C@@H](C(=O)N[C@@H](Cc1c[nH]c2ccccc12)C(=O)N[C@H](CC(C)C)C(=O)N[C@@H](Cc1c[nH]c2ccccc12)C(=O)NCCO)C(C)C)[C@H](C)O)C(C)C [compound 10442] (For-VGA[dL]A[dL]V[dL]W[dT]W[dV]W[dL]W-NHCH2CH2OH)	Streptococcus pyogenes SSI-9	-
CC(C)C[C@@H](NC(=O)[C@H](C)NC(=O)CNC(=O)[C@@H](NC=O)C(C)C)C(=O)N[C@@H](C)C(=O)N[C@@H](C(=O)N[C@H](C(=O)N[C@@H](C(=O)N[C@@H](Cc1c[nH]c2ccccc12)C(=O)N[C@@H](C(=O)N[C@@H](Cc1c[nH]c2ccccc12)C(=O)N[C@H](CC(C)C)C(=O)N[C@@H](Cc1c[nH]c2ccccc12)C(=O)N[C@H](CC(C)C)C(=O)N[C@@H](Cc1c[nH]c2ccccc12)C(=O)NCCO)[C@H](C)O)C(C)C)C(C)C)[C@H](C)O [compound 1592] (For-VGA[dL]A[dT]V[dV]W[dT]W[dL]W[dL]W-NHCH2CH2OH)	Streptococcus pyogenes SSI-9	-
CNC(=O)C[C@@H](NC(=O)[C@@H](NC(=O)[C@H](NC(=O)[C@H](C)NC(=O)[C@@H](CC(C)C)NC(=O)[C@H](C)NC(=O)CNC(=O)[C@@H](NC=O)C(C)C)C(C)C)C(C)C)C(=O)N[C@@H](Cc1c[nH]c2ccccc12)C(=O)N[C@H](CC(C)C)C(=O)N[C@@H](Cc1c[nH]c2ccccc12)C(=O)N[C@@H](C(=O)N[C@@H](Cc1c[nH]c2ccccc12)C(=O)N[C@H](CC(C)C)C(=O)N[C@@H](Cc1c[nH]c2ccccc12)C(=O)NCCO)C(C)C [compound 2881] (For-VGA[dL]A[dV]V[dD](NHMe)W[dL]W[dV]W[dL]W-NHCH2CH2OH)	Streptococcus pyogenes SSI-9	-
